- method: Parent ionizable lipid remaining in liver at 6 h after luciferase mRNA LNP (LC-MS)
- Type: in vivo
- conditionParameters: Table 18; 6 h after IV 0.5 mg/kg Luciferase mRNA LNP, female BALB/c mice (n = 4)
parameterMeasured: Parent ionizable lipid remaining in liver, Average (nmol/g liver)
Answers are plain numbers, in nmol/g liver.

Below: 5 molecules and their reported Parent ionizable lipid remaining in liver, Average.
molecule="CCCCCCCCCCON(C(=O)CCCCN(C)C)C(CCCCCCCCCC)CCCCCC(=O)OCC(CCCCCC)CCCCCCCC (stereo not shown)" resultunit="nmol/g liver" reported=54.78
molecule="CCCCCCCCCCC(CCCCCCC(=O)OCCC(CCCCC)CCCCC)N(CCCCCCCC(=O)OCCC(CCCCC)CCCCC)C(=O)CCCN(C)C (stereo not shown)" resultunit="nmol/g liver" reported=31.32
molecule="CCCCCCCCCCC(CCCCCCCC(=O)OCC(CCCCCC)CCCCCCCC)N(CCCCCCCC(=O)OCC(CCCCCC)CCCCCCCC)C(=O)CCCCN(C)C (stereo not shown)" resultunit="nmol/g liver" reported=17.92
molecule="CCCCCCCCCC(CCCCCCC(F)C(=O)OCCC(CCCCC)CCCCC)N(CCCCCCCC(=O)OCCC(CCCCC)CCCCC)C(=O)CCCN(C)C (stereo not shown)" resultunit="nmol/g liver" reported=7.88
molecule="CCCCCCCCCCN(C(=O)CCCN(C)C)C(CCCCCCCCC)CCCCCCC(F)C(=O)OCCC(CCCCCC)CCCCCC (stereo not shown)" resultunit="nmol/g liver" reported=17.86

Each of the following entries comes with a recorded value; kindly state Parent ionizable lipid remaining in liver, Average for each.
1. CCCCCCCCCCON(C(=O)CCCN(C)C)C(CCCCCCCCCC)CCCCCCC(F)(F)C(=O)OCCC(CCCCC)CCCCC (stereo not shown)
2. CCCCCCCCCCN(C(=O)CCCN(C)C)C(CCCCCCCCC)CCCCCCC(F)(F)C(=O)OCCC(CCCCC)CCCCC (stereo not shown)
3. CCCCC/C=C\CCCC(CCC/C=C\CCCCC)C(CCC/C=C\CCCCC)OC(=O)CCCCN(C)C (stereo not shown) [Compound 13-B43, reference compound]
4. CCCCCCCCCC(CCCCCCC(F)C(=O)OCCC(CCCCC)CCCCC)N(CCCCCC(F)C(=O)OCCC(CCCCC)CCCCC)C(=O)CCCN(C)C (stereo not shown)

Result:
1. 2.91
2. 1.82
3. 63.32
4. 1.78

Each of the following entries comes with a recorded value; kindly state Parent ionizable lipid remaining in liver, Average for each.
1. CCCCCCCCCCON(C(=O)CCCN(C)C)C(CCCCCCCCCC)CCCCCCC(=O)OCCC(CCCCC)CCCCC (stereo not shown)
2. CCCCCCCCCCC(CCCCCCC(=O)OCCC(CCCCC)CCCCC)N(CCCCCC(F)C(=O)OCCC(CCCCC)CCCCC)C(=O)CCCN(C)C (stereo not shown)
3. CCCCCCCCCCN(C(=O)CCCN(C)C)C(CCCCCCCCC)CCCCCCC(F)C(=O)OCC(CCCCCC)CCCCCCCC (stereo not shown)
4. CCCCCCCCCCC(CCCCCCC(=O)OCCC(CCCCC)CCCCC)N(CCCCCCCCC(=O)OCCC(CCCCC)CCCCC)C(=O)CCCCN(C)C (stereo not shown)
5. CCCCCCCCCCC(CCCCCCC(=O)OCCC(CCCCC)CCCCC)N(CCCCCCCC(=O)OCc1cc(CCCCCC)cc(CCCCCC)c1)C(=O)CCCN(C)C (stereo not shown)
6. CCCCCCCCCCN(C(=O)CCCN(C)C)C(CCCCCCCCC)CCCCCCC(F)(F)C(=O)OCC(CCCCCC)CCCCCCCC (stereo not shown)
7. CCCCCCCCCCC(CCCCCCC(F)(F)C(=O)OCCC(CCCCC)CCCCC)N(CCCCCCCC(=O)OCCC(CCCCC)CCCCC)C(=O)CCCN(C)C (stereo not shown)

Result:
23.83
12.79
30.63
20.44
34.35
36.58
3.23
